Assay: Acute toxicity in mouse
Set-up: species or system Mouse (ddy)
Settings: in vivo, sc, mouse female, s.c., read-out: Acute toxicity LD 50
Quantity Measured: LD50

Reported LD50 of CCCCOC(=O)C(=O)Nc1cccc(-c2nnn[nH]2)c1 [MTB] : > 4000 mg/kg

---

Assay: Acute toxicity in rat
Parameters: species or system Rat (wistar)
Settings: in vivo, po, rat female, p.o., read-out: Acute toxicity LD 50
Quantity Measured: LD50

Reported LD50 of `CCCCOC(=O)C(=O)Nc1cccc(-c2nnn[nH]2)c1` : > 4000 mg/kg

---

Test: Acute toxicity in rat
Parameters: species or system Rat (wistar)
Settings: in vivo, po, rat male, p.o., read-out: Acute toxicity LD 50
Quantity Measured: LD50

Reported LD50 of CCCCOC(=O)C(=O)Nc1cccc(-c2nnn[nH]2)c1 [MTB] : > 4000 mg/kg
